System: IGROV-1
experimental.details: NCI tumour cell line growth inhibition, 48 h
The source made the active and inactive calls. No stated cut-off is given here; in the data, active = GI50 up to about 1.1 µM and inactive = higher.
Outcome codes: true (active), false (inactive)

[[record]]
molecule = "COC(=O)C1=C(C)N(NC(=O)c2ccccc2)C(C)(O)C12CCOC2=O (stereo unspecified)"
classification = "false"

[[record]]
molecule = "C#CCN(N=O)C(=O)NCCCCC(NC(C)=O)C(=O)NCc1ccccc1 (stereo unspecified)"
classification = "false"

[[record]]
molecule = "Fc1cc(C2=Nn3c(COc4ccccc4Cl)nnc3S/C2=C\\c2ccc(Cl)cc2)c(Cl)cc1Cl"
classification = "false"

[[record]]
molecule = "CC(=O)OC1C/C(C)=C/CCC(C)/C=C/C2(C)CCC(C(C)(C)O)C12 (stereo unspecified)"
classification = "false"

[[record]]
molecule = "CC1(C)CC(=O)C(CC2C(=O)c3ccccc3C2=O)C(=O)C1C(=O)C(=O)Nc1cccc2ccc(O)cc12 (stereo unspecified)"
classification = "false"

[[record]]
molecule = "NC(=O)NCc1c(C(N)=O)ncn1Cc1ccccc1"
classification = "false"

[[record]]
molecule = "CCOC(=O)C1=C(C)NC(c2ccccc2)=C(C(=O)OCc2ccccc2)C1C#Cc1ccccc1 (stereo unspecified)"
classification = "false"

[[record]]
molecule = "Cc1c2n(c3ccccc13)CC1CON(C)C21 (stereo unspecified)"
classification = "false"

[[record]]
molecule = "Nc1nnc(O)c2c1c(I)cn2C1OC(CO)C(O)C1O (stereo unspecified)"
classification = "true"

[[record]]
molecule = "CCN1C(=O)N(C)C(O)c2c1nc1ccccn1c2=O (stereo unspecified)"
classification = "false"

[[record]]
molecule = "C=CCOC(=O)Cn1cnc2c(N)ncnc21"
classification = "false"

[[record]]
molecule = "O[C@H]1[C@@H]2OC[C@@H](O)[C@H](OCc3ccccc3)[C@@](COCc3ccccc3)(O2)[C@@H]1OCc1ccccc1"
classification = "false"

[[record]]
molecule = "N=C(N)NCCCC(NC(=O)c1c2ccccc2nc2ccccc12)C(=O)O (stereo unspecified)"
classification = "false"

[[record]]
molecule = "O=C(O)C1OC1(c1cccc(Cl)c1)c1ccccc1Cl (stereo unspecified)"
classification = "false"

[[record]]
molecule = "Cc1ccc(S(=O)(=O)/N=C(\\NN)Nc2ccc(Cl)cc2)cc1"
classification = "false"

[[record]]
molecule = "CC(=O)N(CCc1ccccc1)C(C)(C#N)c1ccccc1 (stereo unspecified)"
classification = "false"

[[record]]
molecule = "CC1=C2C(=O)OCC23C=COC3(C)O1 (stereo unspecified)"
classification = "false"

[[record]]
molecule = "NC1CSc2ccccc2NC1=O (stereo unspecified)"
classification = "false"

[[record]]
molecule = "Cc1cc(Br)ccc1/N=N/c1c(C)nn(-c2ccccc2)c1-c1ccccc1"
classification = "false"

[[record]]
molecule = "COc1c(-c2nc3ccc(N4CCN(C)CC4)cc3[nH]2)cc(OC)c2[nH]c(COC(C)=O)nc12"
classification = "false"

[[record]]
molecule = "CC(C)=CCC/C(C)=C/CC/C(C)=C/CC/C(C=O)=C/CC/C(C)=C\\CC/C(C)=C/CC/C(C)=C/CC/C(C)=C/CC1=CC(=O)C=CC1=O"
classification = "false"


----------
Tested on: ACHN
experimental.details: NCI tumour cell line growth inhibition, 48 h
Calls of active or inactive are those of the source. No stated cut-off is given here; in the data, active = GI50 up to about 1.1 µM and inactive = higher.
reported.property: GI50

[[record]]
molecule = "Cc1ccc(S(=O)(=O)N/N=C2/CCC3(O)CC2(C)CCC2[C@H]3CC2(C)C)cc1 (some centres undefined)"
result = "29.8 µM (inactive)"

[[record]]
molecule = "CC(=O)c1cccc(Nc2nc3ccccc3c3occc23)c1"
result = "14.3 µM (inactive)"

[[record]]
molecule = "CC(C)(C)c1ccc(-c2nnc(SCc3ccc(Cl)cc3)n2-c2cccc(C(F)(F)F)c2)cc1"
result = "20.3 µM (inactive)"

[[record]]
molecule = "CCOP(=O)(OCC)C(C)(CC)NC (centres undefined)"
result = "> 100 µM (inactive)"

